Cited source for all entries: patent US20110059916A1

Tested on: mClps
Assay: mClps (procolipase) expression after injection into light-dark mice, Northern blot / RT-PCR
Format: in vivo, mouse
Settings: injected into light-dark mice, Northern blot
property.label: mClps expression in the liver

1. Nc1ncnc2c1ncn2[C@@H]1O[C@H](COP(=O)(O)O)[C@@H](O)[C@H]1O [5′-AMP, 5′-adenosine monophosphate] = induced mClps expression
2. Nc1ncnc2c1ncn2[C@@H]1O[C@H](CO)[C@@H](O)[C@H]1O [adenosine] = induced mClps expression
